Ratio IC50 values by entry
assayText: Selectivity index, IC50 for african green monkey Vero cells to IC50 for Plasmodium falciparum D6
Format: functional
propertyName: Ratio IC50

- molecule: "Cc1ccc(C2OOC(c3ccc(CNc4cc(Cl)c(Cl)cc4Cl)cc3)OO2)cc1 (centres undefined)"
  propertyName: "Ratio IC50"
  readoutValue: ">1.2"
- molecule: "Cc1ccccc1C1OOC(c2ccc(CO)cc2)OO1 (centres undefined)"
  propertyName: "Ratio IC50"
  readoutValue: ">7.7"
- molecule: "CCc1ccc(C2OOC(c3ccc(COS(C)(=O)=O)cc3)OO2)cc1 (centres undefined)"
  propertyName: "Ratio IC50"
  readoutValue: ">2.5"
- molecule: "COc1ccc(NCc2ccc(C3OOC(c4ccc(C)cc4)OO3)cc2)cc1 (centres undefined)"
  propertyName: "Ratio IC50"
  readoutValue: ">1.5"
- molecule: "Cc1ccc(C2OOC(c3ccc(/C=N/CCc4ccccc4)cc3)OO2)cc1 (centres undefined)"
  propertyName: "Ratio IC50"
  readoutValue: ">7.9"
- molecule: "CCc1ccc(C2OOC(c3ccc(C(=O)NCCCO)cc3)OO2)cc1 (centres undefined)"
  propertyName: "Ratio IC50"
  readoutValue: ">2.6"
- molecule: "CCc1ccc(C2OOC(c3ccc(C=O)cc3)OO2)cc1 (centres undefined)"
  propertyName: "Ratio IC50"
  readoutValue: ">1.4"
- molecule: "Cc1ccc(C2OOC(c3ccc(C(=O)NCCCCCCCN)cc3)OO2)cc1 (centres undefined)"
  propertyName: "Ratio IC50"
  readoutValue: ">2.2"
- molecule: "Cc1ccc(C2OOC(c3ccc(/C=N\\CCO)cc3)OO2)cc1 (centres undefined)"
  propertyName: "Ratio IC50"
  readoutValue: ">5.1"
- molecule: "Cc1ccc(C2OOC(c3ccc(CNc4ccc(N)cc4)cc3)OO2)cc1 (centres undefined)"
  propertyName: "Ratio IC50"
  readoutValue: ">2.4"
- molecule: "Cc1ccc(C2OOC(c3ccc(CNc4ccccc4S)cc3)OO2)cc1 (centres undefined)"
  propertyName: "Ratio IC50"
  readoutValue: ">5.5"
- molecule: "Cc1ccc(C2OOC(c3ccc(CNc4cccnc4)cc3)OO2)cc1 (centres undefined)"
  propertyName: "Ratio IC50"
  readoutValue: ">34"
- molecule: "Cc1ccc(C2OOC(c3ccc(/C=N/C4CCCCC4)cc3)OO2)cc1 (centres undefined)"
  propertyName: "Ratio IC50"
  readoutValue: ">6.8"
- molecule: "Cc1ccc(C2OOC(c3ccc(CNc4ccc(O)cc4)cc3)OO2)cc1 (centres undefined)"
  propertyName: "Ratio IC50"
  readoutValue: ">1.8"
- molecule: "Cc1ccc(C2OOC(c3ccc(CNCCc4ccccc4)cc3)OO2)cc1 (centres undefined)"
  propertyName: "Ratio IC50"
  readoutValue: ">1.6"
- molecule: "Cc1ccc(C2OOC(c3ccc(CO)cc3)OO2)cc1 (centres undefined)"
  propertyName: "Ratio IC50"
  readoutValue: ">9"
- molecule: "Cc1ccc(C2OOC(c3ccc(CNc4ccc(Cl)cc4)cc3)OO2)cc1 (centres undefined)"
  propertyName: "Ratio IC50"
  readoutValue: ">6.8"
- molecule: "Cc1ccc(C2OOC(c3ccc(/C=N\\c4ccccc4)cc3)OO2)cc1 (centres undefined)"
  propertyName: "Ratio IC50"
  readoutValue: ">1.7"
- molecule: "Cc1ccc(C2OOC(c3ccc(CNc4c(C)cccc4C)cc3)OO2)cc1 (centres undefined)"
  propertyName: "Ratio IC50"
  readoutValue: ">8.2"
- molecule: "Cc1ccc(C2OOC(c3ccc(CNc4cccc(F)c4)cc3)OO2)cc1 (centres undefined)"
  propertyName: "Ratio IC50"
  readoutValue: ">5.1"
- molecule: "CCCNC(=O)c1ccc(C2OOC(c3ccc(C)cc3)OO2)cc1 (centres undefined)"
  propertyName: "Ratio IC50"
  readoutValue: ">3.4"
- molecule: "CC(C)c1ccc(C2OOC(c3ccc(CO)cc3)OO2)cc1 (centres undefined)"
  propertyName: "Ratio IC50"
  readoutValue: ">7.4"
- molecule: "CCCc1ccc(NCc2ccc(C3OOC(c4ccc(C)cc4)OO3)cc2)cc1 (centres undefined)"
  propertyName: "Ratio IC50"
  readoutValue: ">2.3"
- molecule: "Cc1ccc(C2OOC(c3ccc(C(=O)NCCNc4ccnc5cc(Cl)ccc45)cc3)OO2)cc1 (centres undefined)"
  propertyName: "Ratio IC50"
  readoutValue: ">8.5"
- molecule: "Cc1ccc(C2OOC(c3ccc(C(=O)NCCc4ccccc4)cc3)OO2)cc1 (centres undefined)"
  propertyName: "Ratio IC50"
  readoutValue: ">4.3"
- molecule: "Cc1ccc(C2OOC(c3ccc(CNc4ccc(Br)cc4)cc3)OO2)cc1 (centres undefined)"
  propertyName: "Ratio IC50"
  readoutValue: ">1.4"
- molecule: "Cc1ccc(C2OOC(c3ccc(/C=N\\c4ccc(Cl)cc4)cc3)OO2)cc1 (centres undefined)"
  propertyName: "Ratio IC50"
  readoutValue: ">8.2"
- molecule: "C[C@@H]1CC[C@H]2[C@@H](C)C(=O)O[C@@H]3O[C@@]4(C)CC[C@@H]1[C@]32OO4"
  propertyName: "Ratio IC50"
  readoutValue: ">500"
- molecule: "Cc1ccc(C2OOC(c3ccc(C(=O)NCCCNc4ccnc5cc(Cl)ccc45)cc3)OO2)cc1 (centres undefined)"
  propertyName: "Ratio IC50"
  readoutValue: ">7.7"
- molecule: "Cc1ccc(C2OOC(c3ccc(CNc4ccc(F)cc4)cc3)OO2)cc1 (centres undefined)"
  propertyName: "Ratio IC50"
  readoutValue: ">6"
- molecule: "Cc1ccc(C2OOC(c3ccc(/C=N\\N)cc3)OO2)cc1 (centres undefined)"
  propertyName: "Ratio IC50"
  readoutValue: ">9"
- molecule: "Cc1ccc(C2OOC(c3ccc(CNc4ccc(C(C)C)cc4)cc3)OO2)cc1 (centres undefined)"
  propertyName: "Ratio IC50"
  readoutValue: ">4.9"
- molecule: "Cc1ccc(C2OOC(c3ccc(CNc4ccccc4Cl)cc3)OO2)cc1 (centres undefined)"
  propertyName: "Ratio IC50"
  readoutValue: ">4.8"
- molecule: "Cc1ccc(C2OOC(c3ccc(/C=N\\c4ccc(Br)cc4)cc3)OO2)cc1 (centres undefined)"
  propertyName: "Ratio IC50"
  readoutValue: ">1.4"
- molecule: "Cc1ccc(C2OOC(c3ccc(CNc4cccc(O)c4)cc3)OO2)cc1 (centres undefined)"
  propertyName: "Ratio IC50"
  readoutValue: ">3.7"
- molecule: "Cc1ccc(C2OOC(c3ccc(CNc4ccccc4F)cc3)OO2)cc1 (centres undefined)"
  propertyName: "Ratio IC50"
  readoutValue: ">6.6"
- molecule: "CCc1ccc(C2OOC(c3ccc(C(=O)NCCCCCCO)cc3)OO2)cc1 (centres undefined)"
  propertyName: "Ratio IC50"
  readoutValue: ">3.4"
- molecule: "CCc1ccc(C2OOC(c3ccc(CO)cc3)OO2)cc1 (centres undefined)"
  propertyName: "Ratio IC50"
  readoutValue: 9.9
- molecule: "Cc1ccc(C2OOC(c3ccc(C(=O)O)cc3)OO2)cc1 (centres undefined)"
  propertyName: "Ratio IC50"
  readoutValue: ">1.5"
- molecule: "Cc1ccc(C2OOC(c3ccc(CNc4cccc(C)c4)cc3)OO2)cc1 (centres undefined)"
  propertyName: "Ratio IC50"
  readoutValue: ">4.8"
- molecule: "Cc1ccc(C2OOC(c3ccc(CN(C)c4ccccc4)cc3)OO2)cc1 (centres undefined)"
  propertyName: "Ratio IC50"
  readoutValue: ">8.4"
- molecule: "COc1cc(NCc2ccc(C3OOC(c4ccc(C)cc4)OO3)cc2)cc(OC)c1 (centres undefined)"
  propertyName: "Ratio IC50"
  readoutValue: ">1.8"
- molecule: "CCc1ccc(NCc2ccc(C3OOC(c4ccc(C)cc4)OO3)cc2)cc1 (centres undefined)"
  propertyName: "Ratio IC50"
  readoutValue: ">3.7"
- molecule: "Cc1ccc(C2OOC(c3ccc(COS(C)(=O)=O)cc3)OO2)cc1 (centres undefined)"
  propertyName: "Ratio IC50"
  readoutValue: ">1.7"
